Tested on: K. pneumoniae NVT1001 strains with ESBL or AmpC β-lactamase plasmids
Protocol Text: Etest MIC of β-lactams, OmpK35/36 loss, ΔramR and/or extended-spectrum β-lactamase and AmpC β-lactamase (Table 8)
Format: cell-based, Klebsiella pneumoniae
Assay Conditions: Klebsiella pneumoniae, SHV-12 on pACYC177; ΔramRΔ35 (ΔramRΔompK35 mutant)
Outcome Measure: MIC (µg/mL)

>>> recorded_value("C[C@@H](O)[C@H]1C(=O)N2C(C(=O)O)=C(S[C@@H]3CN[C@H](C(=O)Nc4cccc(C(=O)O)c4)C3)[C@H](C)[C@H]12")
0.125
>>> recorded_value("C[C@@H](O)[C@H]1C(=O)N2C(C(=O)O)=C(S[C@@H]3CN[C@H](C(=O)N(C)C)C3)[C@H](C)[C@H]12")
0.06
>>> recorded_value("C[C@@H](O)[C@H]1C(=O)N2C(C(=O)O)=C(SCCN=CN)C[C@H]12")
0.25
>>> recorded_value("CO/N=C(\\C(=O)N[C@@H]1C(=O)N2C(C(=O)O)=C(COC(N)=O)CS[C@H]12)c1ccco1")
128
>>> recorded_value("CO/N=C(\\C(=O)N[C@@H]1C(=O)N2C(C(=O)O)=C(COC(C)=O)CS[C@H]12)c1csc(N)n1")
64

====

Test system: K. pneumoniae NVT1001 and its ΔompK35/36 and/or ΔramR mutants
Protocol Text: Etest MIC, OmpK35/36 loss and AcrAB-TolC overexpression (ΔramR) strains (Table 6)
Format: cell-based, Klebsiella pneumoniae
Assay Conditions: Klebsiella pneumoniae, ΔramRΔ35, ΔramRΔompK35 mutant
Note to self: MIC under 8 µg/mL means YES, ties and anything higher get NO.

>>> label_class("CO/N=C(\\C(=O)N[C@@H]1C(=O)N2C(C(=O)O)=C(COC(C)=O)CS[C@H]12)c1csc(N)n1 [Cefotaxime]")
"YES"
>>> label_class("CN(C)c1ccc(O)c2c1C[C@H]1C[C@H]3[C@H](N(C)C)C(O)=C(C(N)=O)C(=O)[C@@]3(O)C(O)=C1C2=O [Minocycline]")
"NO"
>>> label_class("CO/N=C(\\C(=O)N[C@@H]1C(=O)N2C(C(=O)O)=C(COC(N)=O)CS[C@H]12)c1ccco1 [Cefuroxime]")
"NO"
>>> label_class("CCn1cc(C(=O)O)c(=O)c2ccc(C)nc21 [Nalidixic acid, nalidixic acid]")
"NO"
>>> label_class("NC[C@H]1O[C@H](O[C@H]2[C@H](O)[C@@H](O[C@H]3O[C@H](CO)[C@@H](O)[C@H](N)[C@H]3O)[C@H](N)C[C@@H]2N)[C@H](N)C[C@@H]1O [Tobramycin]")
"YES"
>>> label_class("NCC[C@H](O)C(=O)N[C@@H]1C[C@H](N)[C@@H](O[C@H]2O[C@H](CN)[C@@H](O)[C@H](O)[C@H]2O)[C@H](O)[C@H]1O[C@H]1O[C@H](CO)[C@@H](O)[C@H](N)[C@H]1O [Amikacin]")
"YES"
>>> label_class("CCn1cc(C(=O)O)c(=O)c2cc(F)c(N3CCNCC3)cc21 [Norfloxacin, norfloxacin]")
"YES"
>>> label_class("C[C@H]1[C@H](NC(=O)/C(=N\\OC(C)(C)C(=O)O)c2csc(N)n2)C(=O)N1S(=O)(=O)O [Aztreonam]")
"YES"
>>> label_class("NC[C@H]1O[C@H](O[C@H]2[C@H](O)[C@@H](O[C@H]3O[C@H](CO)[C@@H](O)[C@H](N)[C@H]3O)[C@H](N)C[C@@H]2N)[C@H](O)[C@@H](O)[C@@H]1O [Kanamycin]")
"YES"
>>> label_class("CO/N=C(\\C(=O)N[C@@H]1C(=O)N2C(C(=O)[O-])=C(C[N+]3(C)CCCC3)CS[C@H]12)c1csc(N)n1 [Cefepime]")
"YES"
>>> label_class("Cc1cc(NS(=O)(=O)c2ccc(N)cc2)no1 [Sulfamethoxazole]")
"NO"
>>> label_class("O=C1CN(/N=C/c2ccc([N+](=O)[O-])o2)C(=O)N1 [Nitrofurantoin]")
"NO"
>>> label_class("COc1c(N2C[C@@H]3CCCN[C@@H]3C2)c(F)cc2c(=O)c(C(=O)O)cn(C3CC3)c12 [Moxifloxacin, moxifloxacin]")
"YES"
>>> label_class("C[C@@H](O)[C@H]1C(=O)N2C(C(=O)O)=C(S[C@@H]3CN[C@H](C(=O)Nc4cccc(C(=O)O)c4)C3)[C@H](C)[C@H]12 [Ertapenem]")
"YES"
>>> label_class("CCN[C@@H]1C[C@H](N)[C@@H](O[C@H]2OC(CN)=CC[C@H]2N)[C@H](O)[C@H]1O[C@H]1OC[C@](C)(O)[C@H](NC)[C@H]1O [Netilmicin]")
"YES"
>>> label_class("CC(C)(O/N=C(\\C(=O)N[C@@H]1C(=O)N2C(C(=O)[O-])=C(C[n+]3ccccc3)CS[C@H]12)c1csc(N)n1)C(=O)O [Ceftazidime]")
"YES"
>>> label_class("C[C@@H](O)[C@H]1C(=O)N2C(C(=O)O)=C(S[C@@H]3CN[C@H](CNS(N)(=O)=O)C3)[C@H](C)[C@H]12 [Doripenem]")
"YES"
>>> label_class("C[C@@H]1O[C@@H]1P(=O)(O)O [Fosfomycin]")
"NO"
>>> label_class("[H]/N=C(/N)N[C@H]1[C@H](O)[C@@H](O)[C@H](O[C@@H]2O[C@@H](C)[C@](O)(C=O)[C@H]2O[C@@H]2O[C@@H](CO)[C@H](O)[C@@H](O)[C@@H]2NC)[C@@H](N/C(N)=N\\[H])[C@@H]1O [Streptomycin]")
"YES"
>>> label_class("CO[C@@]1(NC(=O)Cc2cccs2)C(=O)N2C(C(=O)O)=C(COC(N)=O)CS[C@@H]21 [Cefoxitin]")
"NO"
>>> label_class("CCO/N=C(\\C(=O)N[C@@H]1C(=O)N2C(C(=O)[O-])=C(Sc3nc(-c4cc[n+](C)cc4)cs3)CS[C@H]12)c1nsc(N)n1 [Ceftaroline]")
"YES"
>>> label_class("C[C@H]1COc2c(N3CCN(C)CC3)c(F)cc3c(=O)c(C(=O)O)cn1c23 [Levofloxacin, levofloxacin]")
"YES"
>>> label_class("CC(=O)OCC1=C(C(=O)O)N2C(=O)[C@@H](NC(=O)Cc3cccs3)[C@H]2SC1 [Cephalothin]")
"NO"
>>> label_class("C[C@@H](O)[C@H]1C(=O)N2C(C(=O)O)=C(S[C@@H]3CN[C@H](C(=O)N(C)C)C3)[C@H](C)[C@H]12 [Meropenem]")
"YES"
